These measurements were taken from the supplement of paper PMC10567573.

Consider the following variants; for each one, report its protein stability index.
B1: MYL5 (parent)
chain: DVAGNLDYKALSYVITHGEEKEE

Variants of: B1
Experiment: protein stability index of a GFP-peptide fusion (GPS, HEK-293T) (PSI 1-6); higher = more stable;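 note: lentivirally expressed fusions sorted by FACS into six bins by GFP to DsRed ratio, PSI derived from sequencing read proportions per bin multiplied by bin number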
Details: c terminus: native
One number for each entry.

DVAGNLDYRALSYVITHGEEKEE [K9R] : 1.35

For each of the items listed, what is its protein stability index?
1. HVAGNLDYKALSYVITHGEEKEE [D1H]
2. DVAGNLDYKALSYVITHPEEKEE [G18P]
3. DVAGNLDYKALSYVRTHGEEKEE [I15R]
4. DVAGNQDYKALSYVITHGEEKEE [L6Q]
5. DVAGNLDYKAGSYVITHGEEKEE [L11G]
6. DVAGNLDYKALLYVITHGEEKEE [S12L]
7. DVAGNLDYKANSYVITHGEEKEE [L11N]
8. DVAGNLDYKALSYVITHGEEDEE [K21D]

[out]
1. 3.37
2. 1.12
3. 2.73
4. 1.93
5. 2.48
6. 1.77
7. 2.23
8. 4.35

Below are some variants; for each one, tell me its protein stability index.
1. DVAGNLDYKALVYVITHGEEKEE [S12V]
2. DVAGNLDYKALSYVITHREEKEE [G18R]
3. DVAGNLDYKACSYVITHGEEKEE [L11C]
4. DVAGNLDYKALSYVITHEEEKEE [G18E]
5. DVAGNLDYKALSYVCTHGEEKEE [I15C]
6. DVAGNLDYKALSYVITHGEESEE [K21S]
7. DVAGNLDYKALSYVITHGIEKEE [E19I]
8. DVAGNLDYKALSYVITHGEEKWE [E22W]

[out]
[1.73, 2.43, 2.64, 2.1, 2.95, 1.52, 2.19, 3.59]

Answer for every listed entry: what is its protein stability index? The entries follow.
1. DVAGNLDYKALSYVGTHGEEKEE [I15G]
2. DRAGNLDYKALSYVITHGEEKEE [V2R]
3. DVAGNLDYYALSYVITHGEEKEE [K9Y]
4. DVEGNLDYKALSYVITHGEEKEE [A3E]
5. DVAGNLDYKAVSYVITHGEEKEE [L11V]
6. DVAGNLDTKALSYVITHGEEKEE [Y8T]

[out]
[2.31, 2.3, 2.3, 2.1, 1.88, 1.42]

# per-item lookup of protein stability index; items listed below
1. DVAGNLDYKALSYDITHGEEKEE [V14D]
2. DVAGNLDYPALSYVITHGEEKEE [K9P]
3. DVAGMLDYKALSYVITHGEEKEE [N5M]
4. DVAGNLDYKALSYVITHGEEKES [E23S]
5. DVAGNLRYKALSYVITHGEEKEE [D7R]
6. DVAGNLDYKAHSYVITHGEEKEE [L11H]
7. DVAGNLDYTALSYVITHGEEKEE [K9T]

[out]
2.97
1.95
1.3
3.81
1.69
2.75
2.18
